// reported pIC50 for each item listed
Target: Integrin alpha2/beta1 (Homo sapiens, UniProt P05556+P17301)
Sequence (P05556 whole entry): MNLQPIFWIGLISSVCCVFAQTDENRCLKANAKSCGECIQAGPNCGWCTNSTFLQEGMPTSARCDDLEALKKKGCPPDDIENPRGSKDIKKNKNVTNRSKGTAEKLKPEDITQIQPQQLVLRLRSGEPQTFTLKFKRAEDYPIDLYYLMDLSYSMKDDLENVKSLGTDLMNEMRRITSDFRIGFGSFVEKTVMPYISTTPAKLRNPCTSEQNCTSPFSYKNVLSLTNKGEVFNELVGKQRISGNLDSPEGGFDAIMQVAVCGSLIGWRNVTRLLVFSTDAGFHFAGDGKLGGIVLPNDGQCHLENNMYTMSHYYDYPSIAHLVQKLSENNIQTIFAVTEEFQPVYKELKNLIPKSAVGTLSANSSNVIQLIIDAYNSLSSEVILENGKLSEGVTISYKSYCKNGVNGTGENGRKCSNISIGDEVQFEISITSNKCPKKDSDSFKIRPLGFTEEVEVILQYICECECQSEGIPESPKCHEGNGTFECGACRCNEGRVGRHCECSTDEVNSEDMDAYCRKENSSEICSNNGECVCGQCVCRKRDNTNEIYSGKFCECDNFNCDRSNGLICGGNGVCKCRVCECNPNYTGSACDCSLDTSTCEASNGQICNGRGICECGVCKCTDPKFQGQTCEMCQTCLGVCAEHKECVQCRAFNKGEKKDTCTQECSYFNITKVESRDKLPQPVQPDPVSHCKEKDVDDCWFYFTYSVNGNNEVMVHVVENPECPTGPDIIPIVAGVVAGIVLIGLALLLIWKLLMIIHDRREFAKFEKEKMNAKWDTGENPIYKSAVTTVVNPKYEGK
Sequence (P17301 whole entry): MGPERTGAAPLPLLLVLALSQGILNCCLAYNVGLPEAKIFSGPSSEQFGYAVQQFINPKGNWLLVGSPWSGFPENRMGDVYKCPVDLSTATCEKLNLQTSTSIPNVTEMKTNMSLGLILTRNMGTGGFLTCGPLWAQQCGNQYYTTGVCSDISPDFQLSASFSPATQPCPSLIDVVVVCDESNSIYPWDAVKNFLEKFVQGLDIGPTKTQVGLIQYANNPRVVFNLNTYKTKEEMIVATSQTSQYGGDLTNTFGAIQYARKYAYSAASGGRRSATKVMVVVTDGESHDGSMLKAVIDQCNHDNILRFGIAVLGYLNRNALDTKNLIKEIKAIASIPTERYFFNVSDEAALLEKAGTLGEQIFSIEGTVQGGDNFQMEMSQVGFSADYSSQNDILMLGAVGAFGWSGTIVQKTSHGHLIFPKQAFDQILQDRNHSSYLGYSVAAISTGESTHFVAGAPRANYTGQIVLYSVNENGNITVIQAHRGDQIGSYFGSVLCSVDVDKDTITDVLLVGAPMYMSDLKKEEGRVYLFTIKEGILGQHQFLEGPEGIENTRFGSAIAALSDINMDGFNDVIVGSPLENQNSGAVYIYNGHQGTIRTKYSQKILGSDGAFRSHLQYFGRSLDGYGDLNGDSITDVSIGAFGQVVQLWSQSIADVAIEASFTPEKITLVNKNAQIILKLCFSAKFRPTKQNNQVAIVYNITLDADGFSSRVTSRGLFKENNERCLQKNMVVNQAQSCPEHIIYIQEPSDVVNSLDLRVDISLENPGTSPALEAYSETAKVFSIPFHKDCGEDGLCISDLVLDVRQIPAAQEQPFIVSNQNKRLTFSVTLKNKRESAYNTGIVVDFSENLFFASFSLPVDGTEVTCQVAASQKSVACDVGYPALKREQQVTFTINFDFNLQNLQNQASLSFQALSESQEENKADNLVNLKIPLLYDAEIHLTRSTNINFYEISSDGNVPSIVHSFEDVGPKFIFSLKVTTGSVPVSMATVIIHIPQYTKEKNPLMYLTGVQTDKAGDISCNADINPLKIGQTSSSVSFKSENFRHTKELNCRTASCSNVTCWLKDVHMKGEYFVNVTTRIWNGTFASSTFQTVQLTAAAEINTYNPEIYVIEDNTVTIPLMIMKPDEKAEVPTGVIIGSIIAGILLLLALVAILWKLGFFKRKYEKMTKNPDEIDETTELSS
Assay: Antagonist activity at recombinant integrin alpha2 beta1 receptor (unknown origin) assessed as inhibition of interaction with biotinylated collagen type-1 after 3 hrs by solid phase ELISA-type assay
Format: protein-complex assay
pIC50: −log10 of the molar value.

For orientation, consider the following solved cases.
{"columns": ["molecule", "pIC50"],
 "data": [
  ["O=C1N[C@@H](C(=O)O)Cc2cn(cn2)CCCCOc2ccc(Cl)c1c2", "< 5.40"],
  ["O=C1NC(C(=O)O)Cc2ccccc2OCCCCOc2ccc(Cl)c1c2 (racemic)", "< 5.40"],
  ["O=C1N[C@H](C(=O)O)Cc2cccc(n2)NCCCCOc2ccc(Cl)c1c2", "< 6.00"]
]}

Then this molecule:
*Q* Entry `O=C1N[C@H](C(=O)O)Cc2cccc(c2)OC/C=C/COc2ccc1c(F)c2` needs its pIC50 filled in; supply it.
*A* < 6.00
